STUDY_TARGET: UniProt:Q9H0H5
Sequence (Q9H0H5 whole entry): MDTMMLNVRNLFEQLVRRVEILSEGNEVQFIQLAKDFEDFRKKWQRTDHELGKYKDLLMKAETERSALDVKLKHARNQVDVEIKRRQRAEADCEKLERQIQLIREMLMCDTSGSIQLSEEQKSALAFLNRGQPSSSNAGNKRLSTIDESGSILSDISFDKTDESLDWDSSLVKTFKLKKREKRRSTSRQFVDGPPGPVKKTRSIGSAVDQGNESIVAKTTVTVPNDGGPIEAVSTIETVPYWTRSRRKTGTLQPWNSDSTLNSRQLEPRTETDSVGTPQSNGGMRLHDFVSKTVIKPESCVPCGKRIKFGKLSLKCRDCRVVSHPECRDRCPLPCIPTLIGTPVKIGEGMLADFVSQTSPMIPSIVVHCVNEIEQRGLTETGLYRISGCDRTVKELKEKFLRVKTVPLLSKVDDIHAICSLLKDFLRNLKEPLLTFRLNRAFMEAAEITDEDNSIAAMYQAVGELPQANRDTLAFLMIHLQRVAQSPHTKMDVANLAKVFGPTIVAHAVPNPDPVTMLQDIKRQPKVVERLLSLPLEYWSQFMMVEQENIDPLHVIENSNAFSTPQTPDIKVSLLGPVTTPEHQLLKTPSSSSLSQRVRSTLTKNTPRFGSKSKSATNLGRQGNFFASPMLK
EXPERIMENT_NOTES: blockers of MgcRacGAP-driven Rac1 GTP hydrolysis – biochemical, ADP Hunter fluorescence, primary and confirmatory, confirmation (AID 624330)
Type: functional
Calls of active or inactive are those of the source. No rule for the calls is given here.
READOUT_TYPE: IC50

[[record]]
molecule = "Cc1cc(C)c(OCCCCN2CCC(C)CC2)c(Br)c1"
experimental_value = "212 µM (active)"


Form field: reported IC50 of "CCN(CC)c1ccc(NC(=O)COC(=O)CCC(=O)c2cccs2)cc1"
74.4 µM (active)

Form field: reported IC50 of CN1C(=O)C2C(c3ccc(N(C)C)cc3)=NN(Cc3ccccc3)C2C1=O (stereo unspecified)
43 µM (active)

Form field: reported IC50 of "COc1cc(/C=N/NC(=O)c2ccc(N3CCCC3=O)cc2)ccc1O"
30.8 µM (active)

Form field: reported IC50 of "Clc1cc(Br)ccc1OCCOCCN1CCCC1"
135 µM (active)

Form field: reported IC50 of "CC(=O)Nc1cccc(-c2csc(NCc3ccccc3)n2)c1"
65 µM (active)

###

STUDY_TARGET: Cytochrome P450 1A2 (Homo sapiens);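 also: PubChem cytochrome P450 panel assay, CYP1A2 panel member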
Sequence (P05177 whole entry): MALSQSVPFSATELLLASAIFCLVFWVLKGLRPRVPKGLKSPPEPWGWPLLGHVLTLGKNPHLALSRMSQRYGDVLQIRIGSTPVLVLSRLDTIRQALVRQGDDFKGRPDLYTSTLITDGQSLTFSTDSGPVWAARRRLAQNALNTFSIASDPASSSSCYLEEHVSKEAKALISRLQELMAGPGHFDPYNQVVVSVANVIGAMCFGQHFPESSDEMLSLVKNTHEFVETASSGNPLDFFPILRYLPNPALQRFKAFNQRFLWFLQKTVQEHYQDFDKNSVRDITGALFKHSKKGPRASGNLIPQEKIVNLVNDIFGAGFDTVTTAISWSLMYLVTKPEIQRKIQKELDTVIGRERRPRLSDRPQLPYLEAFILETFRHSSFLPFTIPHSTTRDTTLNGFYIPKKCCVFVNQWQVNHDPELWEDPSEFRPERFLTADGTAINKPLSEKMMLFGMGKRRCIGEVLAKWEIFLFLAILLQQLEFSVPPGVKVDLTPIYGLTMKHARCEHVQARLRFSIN
The entries below are paired with their reported AC50.

Form field: reported AC50 of "Oc1ccc(Cn2cc[nH]c2=S)cc1"
6.31 µM (inconclusive)

Form field: reported AC50 of "CCOC(=O)c1c(NC(=O)c2c(C)noc2C)sc2c1CCCCC2"
5.01 µM (inconclusive)

Form field: reported AC50 of CCC(C)NC(=O)c1ccccc1NC(=O)Nc1ccccc1 (stereo unspecified)
3.16 µM (inconclusive)

Form field: reported AC50 of "O=c1c(-c2cc(F)cc(F)c2)nc2cnc(N3CCNCC3)nc2n1Cc1cccs1"
2.51 µM (inconclusive)

Form field: reported AC50 of "Brc1ccc(-c2nnc(-c3cccc(Br)c3)o2)cc1"
0.316 µM (inconclusive)

Form field: reported AC50 of Cc1cc(C)cc(C(=O)OC2C[C@H]3CC[C@@H](C2)N3C)c1 (stereo partly specified)
25.1 µM (inconclusive)

Form field: reported AC50 of "CNc1ncncc1-c1ccccc1OC"
1.58 µM (inconclusive)

Form field: reported AC50 of "COc1ccc(-n2c3c(c(=O)[nH]c2=O)C(C(F)(F)F)(C(F)(F)F)NC(CC(C)C)=N3)cc1"
39.8 µM (inconclusive)

Form field: reported AC50 of "S=C1SCN(Cc2ccccn2)CN1Cc1ccco1"
11.2 µM (inconclusive)

Form field: reported AC50 of "Cn1cnnc1SCC(=O)OCN1C(=O)c2ccccc2C1=O"
25.1 µM (inconclusive)

Form field: reported AC50 of "Nc1nnc(CC(=O)N/N=C/c2cccc([N+](=O)[O-])c2)s1"
31.6 µM (inconclusive)

Form field: reported AC50 of C[C@H]1CCCC=CC2C[C@H](O)C[C@@H]2[C@H](O)/C=C\C(=O)O1 (stereo partly specified)
15.8 µM (inconclusive)

Form field: reported AC50 of "c1ccc(N2CC[C@@]3(CCCNC3)C2)cc1"
39.8 µM (inconclusive)

Form field: reported AC50 of C=CCOc1c2ccc(C(=O)NC3CCCc4ccccc43)cc2nn1C (stereo unspecified)
15.8 µM (inconclusive)

Form field: reported AC50 of "O=[N+]([O-])c1ccc2c(c1)N=C1O[C@H](c3ccc([C@H]4OC5=Nc6cc([N+](=O)[O-])ccc6NC5=C4O)cc3)C(O)=C1N2"
3.16 µM (inconclusive)

Form field: reported AC50 of N#CC(c1ccccc1F)(c1ncc(C(F)(F)F)cc1Cl)N1CCOCC1 (stereo unspecified)
25.1 µM (inconclusive)
